Some compounds, each annotated with its measured pIC50.
biological target: Tubulin; test: Inhibition of tubulin polymerization
pIC50: −log10 of the molar value.
value-type: pIC50

- compound: "COc1cc(C2C(C#N)=C(N)Oc3c2ccc2cc[nH]c32)cc(Br)c1OC (configuration not stated)"
  assay-value: 6.05
- compound: "COc1cc(C2C(C#N)=C(N)Oc3c2ccc2[nH]ccc32)cc(Br)c1OC (configuration not stated)"
  assay-value: 6.40
